Readings of pIC50 for the listed compounds
Molecular target: human PD-L1 / Human PD-1 (Homo sapiens (Human))
Sequence (Q9NZQ7 19-239): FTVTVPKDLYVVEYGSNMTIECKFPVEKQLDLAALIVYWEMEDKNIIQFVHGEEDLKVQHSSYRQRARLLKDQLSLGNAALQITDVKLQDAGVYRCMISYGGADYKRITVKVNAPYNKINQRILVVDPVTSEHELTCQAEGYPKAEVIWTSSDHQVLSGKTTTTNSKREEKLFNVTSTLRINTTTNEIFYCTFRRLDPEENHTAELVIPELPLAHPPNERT
Assay: Enzyme-Linked Immunosorbent Assay (ELISA), PD-1/PD-L1 binding
Conditions: plate-coated human PD-L1, biotinylated human PD-1
pIC50: −log10 of the molar value.

Examples with answers:
{"compound": "N#Cc1cncc(COc2cc(O[C@H]3CCc4c(-c5cccc(OCCCN6CC7(CC(F)C7)C6)c5Cl)cccc43)c(Cl)cc2CN[C@@H]2CC[C@H]2O)c1", "value_measured": "> 8.30"}
{"compound": "CCOc1cc(O[C@H]2CCc3c(-c4cccc(OCCCN5C(C)CC5C)c4C)cccc32)c(Cl)cc1CNC[C@@H]1CCC(=O)N1 (stereo partly shown)", "value_measured": "> 8.30"}
{"compound": "CC1(O)CN(Cc2cc(Cl)c(O[C@H]3CCc4c(-c5cccc(OCCCN6CCC(F)CC6)c5Cl)cccc43)cc2OCc2cncc(C#N)c2)C1", "value_measured": "> 8.30"}

From here, focus on the item given below.
Query: // lookup pIC50 for Cc1c(OCCCN2CCC(F)CC2)cccc1-c1cccc2c1CC[C@@H]2Oc1cc(OCc2cc(C#N)cc(C#N)c2)c(CNC[C@H]2CCC(=O)N2)cc1Cl
Result: 6.30 to 8.30
